Entries and their Activity
Tested on: J558L
assay.protocol: Inhibition of proteasome in mouse J558L cell lysate assessed as cleavage of Suc-leu-leu-val-Tyr-AMC at 1000 nM after 30 mins
Parameters: scale not given: the % may be the effect or the level left
// note: answer is a bare numeric in %

Entry under review: CC(C)CC(NC(=O)[C@H](CC(C)C)NC(=O)OCc1ccccc1)C(=O)N[C@@H](C=O)CC(C)C (stereo in doubt; (-)) . Reported Activity?
64

Follow-up item: CC(C)C[C@@H](C=O)NC(=O)[C@H](CC(C)C)NC(=O)[C@H](CC(C)C)NC(=O)OCc1ccccc1 (stereo in doubt; 2)
25

Follow-up item: CC(C)C[C@H](NC(=O)[C@@H](CC(C)C)NC(=O)OCc1ccccc1)C(=O)N[C@@H](C=O)CC(C)C
96

Follow-up item: CC(C)C[C@H](C=O)NC(=O)[C@@H](CC(C)C)NC(=O)[C@@H](CC(C)C)NC(=O)OCc1ccccc1
66

Follow-up item: CC(C)CC(NC(=O)[C@@H](CC(C)C)NC(=O)OCc1ccccc1)C(=O)N[C@H](C=O)CC(C)C (stereo in doubt)
40

Follow-up item: CC(C)C[C@@H](C=O)NC(=O)[C@@H](CC(C)C)NC(=O)[C@H](CC(C)C)NC(=O)OCc1ccccc1
21

Follow-up item: CC(C)CC(NC(=O)[C@H](CC(C)C)NC(=O)OCc1ccccc1)C(=O)N[C@@H](C=O)CC(C)C (stereo in doubt; (+))
106

Follow-up item: CC(C)CC(NC(=O)[C@@H](CC(C)C)NC(=O)OCc1ccccc1)C(=O)N[C@H](C=O)CC(C)C (single isomer, unassigned; (+))
117

Follow-up item: CC(C)C[C@@H](C=O)NC(=O)[C@H](CC(C)C)NC(=O)[C@H](CC(C)C)NC(=O)OCc1ccccc1 (stereo in doubt)
72
